Recorded shrunken log2 fold change for the following sequences
Test system: Escherichia coli TOP10;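 note: peptides expressed intracellularly from a pBAD plasmid library in pooled LB shake-flask culture, induced with 0.3% L-arabinose, DNA abundance read by NGS, three biological replicates, DESeq2 with apeglm shrinkage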
assay_text: shrunken log2 fold change of peptide-encoding DNA abundance (4.5 h post-induction vs induction); higher = less antimicrobial activity (less host growth inhibition)
settings: time post-induction: 4.5 h; library: site-saturation at positions 5, 18, 19, 20

entry_sequence | tgt | shrunken log2 fold change
RRIRVRPPRLPRPRPRPSYYPRP | Escherichia coli TOP10 | -0.674
RRIRYRPPRLPRPRPRPMCLPRP | Escherichia coli TOP10 | -0.0113
RRIRMRPPRLPRPRPRPSMTPRP | Escherichia coli TOP10 | 2.18
RRIRWRPPRLPRPRPRPSVPPRP | Escherichia coli TOP10 | 0.045
RRIRLRPPRLPRPRPRPVFGPRP | Escherichia coli TOP10 | 0.0724
RRIRSRPPRLPRPRPRPGGYPRP | Escherichia coli TOP10 | 2.83
RRIRQRPPRLPRPRPRPWFDPRP | Escherichia coli TOP10 | -0.253
RRIRQRPPRLPRPRPRPGRTPRP | Escherichia coli TOP10 | -0.433
RRIRPRPPRLPRPRPRPWAWPRP | Escherichia coli TOP10 | 0.0719
RRIRNRPPRLPRPRPRPQQTPRP | Escherichia coli TOP10 | -0.0918
RRIRSRPPRLPRPRPRPAYYPRP | Escherichia coli TOP10 | -0.495
RRIRQRPPRLPRPRPRPLYGPRP | Escherichia coli TOP10 | 0.0686
RRIRRRPPRLPRPRPRPEILPRP | Escherichia coli TOP10 | 0.14
RRIRQRPPRLPRPRPRPILFPRP | Escherichia coli TOP10 | 0.0255
RRIRRRPPRLPRPRPRPAWFPRP | Escherichia coli TOP10 | 0.22
RRIRLRPPRLPRPRPRPDGHPRP | Escherichia coli TOP10 | 0.0499
RRIRWRPPRLPRPRPRPAGTPRP | Escherichia coli TOP10 | 0.349
RRIRLRPPRLPRPRPRPSTPPRP | Escherichia coli TOP10 | -0.207
RRIRRRPPRLPRPRPRPNNFPRP | Escherichia coli TOP10 | -0.00104
RRIRFRPPRLPRPRPRPIYEPRP | Escherichia coli TOP10 | -0.632
RRIRSRPPRLPRPRPRPRQIPRP | Escherichia coli TOP10 | -0.066
RRIRRRPPRLPRPRPRPRGYPRP | Escherichia coli TOP10 | 0.398
RRIRFRPPRLPRPRPRPSEYPRP | Escherichia coli TOP10 | -0.288
RRIRTRPPRLPRPRPRPSYNPRP | Escherichia coli TOP10 | -0.591
RRIRLRPPRLPRPRPRPMPHPRP | Escherichia coli TOP10 | 0.0155
RRIRARPPRLPRPRPRPCAAPRP | Escherichia coli TOP10 | 0.893
RRIRVRPPRLPRPRPRPYHRPRP | Escherichia coli TOP10 | -2.18
RRIRGRPPRLPRPRPRPWHNPRP | Escherichia coli TOP10 | -0.145
RRIRWRPPRLPRPRPRPASEPRP | Escherichia coli TOP10 | 0.329
RRIRRRPPRLPRPRPRPMRAPRP | Escherichia coli TOP10 | 0.905
RRIRDRPPRLPRPRPRPTGDPRP | Escherichia coli TOP10 | 0.209
RRIRVRPPRLPRPRPRPWGFPRP | Escherichia coli TOP10 | 0.0189
RRIRRRPPRLPRPRPRPQPQPRP | Escherichia coli TOP10 | 0.354
RRIRPRPPRLPRPRPRPSVDPRP | Escherichia coli TOP10 | -0.187
RRIRQRPPRLPRPRPRPCCQPRP | Escherichia coli TOP10 | -0.00534
RRIRARPPRLPRPRPRPLMSPRP | Escherichia coli TOP10 | 0.302
RRIRHRPPRLPRPRPRPRGAPRP | Escherichia coli TOP10 | 0.152
RRIRNRPPRLPRPRPRPYALPRP | Escherichia coli TOP10 | -0.399
RRIRERPPRLPRPRPRPSLFPRP | Escherichia coli TOP10 | -0.44
RRIRWRPPRLPRPRPRPGICPRP | Escherichia coli TOP10 | 0.146
RRIRQRPPRLPRPRPRPHPVPRP | Escherichia coli TOP10 | 0.0674
RRIRERPPRLPRPRPRPRCYPRP | Escherichia coli TOP10 | -0.138
RRIRRRPPRLPRPRPRPHERPRP | Escherichia coli TOP10 | 0.225
RRIRQRPPRLPRPRPRPLIGPRP | Escherichia coli TOP10 | -0.285
RRIRMRPPRLPRPRPRPDNNPRP | Escherichia coli TOP10 | 0.274
RRIRYRPPRLPRPRPRPNCIPRP | Escherichia coli TOP10 | -0.197
RRIRHRPPRLPRPRPRPHWCPRP | Escherichia coli TOP10 | -0.0566
RRIRDRPPRLPRPRPRPQNNPRP | Escherichia coli TOP10 | -0.653
